Where these numbers come from: ChEMBL document CHEMBL4732030

- Assay Name: Cytotoxicity against human LO2 cells assessed as cell viability at 12.5 uM after 72 hrs by CCK8 assay
- Assay type: cell-based, L02
- Measurement Conditions: read-out: Activity
Assay Readout: viability at 72 h, 12.5 µM

Consider the compound O=C1c2cccc(O)c2C(=O)c2c(O)cc(Cn3cnnn3)cc21 and give its measured viability at 72 h, 12.5 µM.
> 60%

---

MIC listing for selected compounds.
- System: Escherichia coli
- Assay Name: Antibacterial activity against Escherichia coli ATCC 25922 assessed as inhibition of bacterial growth after 24 hrs by microbroth dilution method
- Type: functional
Report only the number, with the unit µg/mL understood.

Here is how some compounds turned out for MIC.
Consider the compound Cn1ccnc1SCc1cc(O)c2c(c1)C(=O)c1cccc(O)c1C2=O and give its measured MIC.
128

Lookup O=C1c2cccc(O)c2C(=O)c2c(O)cc(Cn3cnc4ccccc43)cc21
16

Lookup O=C1c2cccc(O)c2C(=O)c2c(O)cc(Cn3cnnn3)cc21
64

New cases:
Consider the compound O=C1c2cccc(O)c2C(=O)c2c(O)cc(Cn3ccnc3[N+](=O)[O-])cc21 and give its measured MIC.
32

Lookup O=C1c2cccc(O)c2C(=O)c2c(O)cc(Cn3cncn3)cc21
64

Lookup CCc1nc2ccccc2n1Cc1cc(O)c2c(c1)C(=O)c1cccc(O)c1C2=O
32

Lookup Cc1nnnn1Cc1cc(O)c2c(c1)C(=O)c1cccc(O)c1C2=O
64

Lookup O=C1c2cccc(O)c2C(=O)c2c(O)cc(CSc3nc4ccccc4[nH]3)cc21
128
